Cited source for all entries: PubChem BioAssay (NCI)

Listed next: entries and their corresponding GI50.
Tested on: SN12C renal
Run description: NCI tumour cell line growth inhibition, 48 h

O=C(NNS(=O)(=O)c1cc(C(F)(F)F)cc(C(F)(F)F)c1)c1cnn(-c2ccc(Cl)cc2)c1C(F)(F)F    17.2 µM

Qu. Param readout= GI50; system= SN12C renal; entry= "CCCC[C@@H](COC(=O)N(Cc1cccs1)Cc1cccs1)NC(=O)N[C@@H](CC(=O)OC)c1ccc2c(c1)OCO2" ; returns value.
Ans. > 100 µM

Qu. Param readout= GI50; system= SN12C renal; entry= "Cn1ccnc1C(=O)/C=C/c1ccc(C(=O)Nc2nc3ccccc3[nH]2)cc1" ; returns value.
Ans. 9.93 µM

Qu. Param readout= GI50; system= SN12C renal; entry= "COC(=O)CCC1=C(C)c2cc3[n-]c(cc4nc(cc5[n-]c(cc1n2)c(CCC(=O)OC)c5C)C=C4C)cc3C.[Cd+2]" ; returns value.
Ans. 19.1 µM

Qu. Param readout= GI50; system= SN12C renal; entry= NC(CSC(c1ccccc1)(c1ccccc1)c1ccc2ccccc2c1)C(=O)O (centres undefined) ; returns value.
Ans. 0.0874 µM

Qu. Param readout= GI50; system= SN12C renal; entry= "COc1ccc(/C=C(\C#N)c2cc3ccccc3n2C)cc1" ; returns value.
Ans. 0.58 µM

Qu. Param readout= GI50; system= SN12C renal; entry= COc1ccc(C(O)c2cc3c(N)c(C(=O)Nc4cccc(Br)c4)sc3nc2C)cc1 (centres undefined) ; returns value.
Ans. 0.21 µM

Qu. Param readout= GI50; system= SN12C renal; entry= "FC(F)(F)c1ccc(-c2cnc(Br)nc2NC2CCCCCC2)cc1" ; returns value.
Ans. > 100 µM

Qu. Param readout= GI50; system= SN12C renal; entry= "CC(C)(C)CC(C)(C)c1ccc(OCCOCCSC(=N)N)cc1" ; returns value.
Ans. 1.81 µM

###

Listed next: entries and their corresponding GI50.
System: SNB-19 CNS
Run description: NCI tumour cell line growth inhibition, 48 h

Sample answers from the record:
CC[C@H](C)[C@H](NC(=O)C12C3C4C1C1C2C3C41NC(C)=O)C(=O)N(C)[C@H](C[C@@H](OC(C)=O)c1nc(C(=O)N[C@@H](Cc2ccccc2)C[C@H](C)C(=O)OC)cs1)C(C)C (stereo not given in full)    0.578 µM
COc1ccc(-c2ccc(-c3ccc(C(=N)N)cn3)s2)cc1Cl    1.73 µM
N#Cc1nc(-c2ccccc2)oc1S(=O)(=O)N1CCOCC1    28 µM
Oc1c(CN2CCCC2)cc(COCc2ccccc2)c2cccnc12    3.53 µM
O=C(CCN1CCCC1)Nc1ccc2c(NCCCc3ccccc3)c3ccccc3nc2c1    0.729 µM
C=C(C)C1/C=C(/C(C)C)CC[C@]2(C)O[C@@H]2CC[C@H](C)CC1=O (stereo not given in full)    > 100 µM
Fc1ccc(-c2ncn(C3CCNCC3)c2-c2ccnc(Oc3cccc(F)c3)n2)cc1    > 25 µM
FC(F)(F)c1ccc(-c2cnc(Br)nc2NC2CCCCCC2)cc1    > 100 µM

Qu. Param readout= GI50; system= SNB-19 CNS; entry= "CC/C=C\CCC/C=C1/C(=O)C=C[C@@H]1C/C=C\CCCC(=O)O" ; returns value.
Ans. 5.45 µM

Qu. Param readout= GI50; system= SNB-19 CNS; entry= "Oc1ccccc1-n1c(-c2ccccc2)ccc1-c1ccccc1" ; returns value.
Ans. 12.7 µM

###

Tested on: A498 renal
Run description: NCI tumour cell line growth inhibition, 48 h
Listed next: entries and their corresponding TGI.

Sample answers from the record:
S=C(Nc1ccc(Br)cn1)NC12CC3CC(CC(C3)C1)C2    > 100 µM
COc1ccc(C(=O)C=C2NCCN2)cc1    > 100 µM
CC(C)(C)OC(=O)NC(Cc1ccc([N+](=O)[O-])cc1)C(=O)NC(CCCCNC(=O)OCc1ccccc1)C(=O)ON1C(=O)CCC1=O (centres undefined)    > 100 µM
COc1cc2c(cc1C)n(O)c(C)c(C(=O)C/C(=N/NC(=O)C[N+](C)(C)C)C(=O)Nc1cccc(Cl)c1C)[n+]2=O    > 100 µM
CC(=O)c1cccc(NC2C(N)C(NC(=O)N(C)C)(C(C)O)C(C)(O)C2(O)COC(=O)c2c(C)cccc2O)c1 (centres undefined)    < 0.001 µM

Qu. Quick check: TGI of "O=C1/C(=C/c2cccs2)CCC/C1=C\c1cccs1" ?
Ans. > 100 µM

Qu. Quick check: TGI of Cc1ccc2c(O)c3c(cc2c1)C(=O)c1c2c(cc(O)c1C3=O)C1(C)OC(O2)C(O)C(N(C)C)C1O (centres undefined) ?
Ans. 2.37 µM

Qu. Quick check: TGI of "O=[N+]([O-])C1(C2([N+](=O)[O-])CCCC2)CCCC1" ?
Ans. > 100 µM

Qu. Quick check: TGI of C[C@@H]1C(O)CC[C@H](C)C12CC=CC2=O (some centres undefined) ?
Ans. > 100 µM

###

Listed next: entries and their corresponding TGI.
Test system: HOP-62 NSCLC
Run description: NCI tumour cell line growth inhibition, 48 h

CC(=O)c1cccc(NC2C(N)C(NC(=O)N(C)C)(C(C)O)C(C)(O)C2(O)COC(=O)c2c(C)cccc2O)c1 (stereo not given)    0.0786 µM
Cc1cc(=Nc2ccc3c(c2)c(N)cc(C)[n+]3C)nc(N)n1C    > 100 µM
CSCCCCCCCCCCOc1ccc(C=C2C(=C(C#N)C#N)c3ccccc3C2=C(C#N)C#N)cc1    32.2 µM

Qu. Quick check: TGI of "CC(=O)Oc1c(OC(C)=O)c(-c2ccc(O)c(O)c2)c(O)c(O)c1-c1ccc(O)cc1" ?
Ans. > 100 µM

Qu. Quick check: TGI of "Cn1c(=O)c2[nH]c(COc3ccc(C(C)(C)C)cc3)nc2n(C)c1=O" ?
Ans. > 100 µM

Qu. Quick check: TGI of CCOC(=O)C12CC1(C(=O)OCC)C1CCC2C1 (stereo not given) ?
Ans. > 100 µM

Qu. Quick check: TGI of C=C(C)C1/C=C(/C(C)C)CC[C@]2(C)O[C@@H]2CC[C@H](C)CC1=O (stereo not given in full) ?
Ans. > 100 µM

Qu. Quick check: TGI of "Cc1nc2c(-c3ccccc3)[nH]c(C)c2c(=O)o1" ?
Ans. > 100 µM

Qu. Quick check: TGI of Cn1cnc([N+](=O)[O-])c1Sc1ncnc2c1ncn2C1OC(CO)C(O)C1O (stereo not given) ?
Ans. > 100 µM

Qu. Quick check: TGI of "COC(=O)CCCCC/C(=C\C(=O)C(Cl)(Cl)Cl)OC" ?
Ans. > 100 µM

###

System: HOP-62 NSCLC
Run description: NCI tumour cell line growth inhibition, 48 h
Measurement kind: TGI

CCOC(=O)CCC(NC(=O)OCc1ccccc1)C(=O)NC(CCC(=O)OCC)C(=O)NC(CCC(=O)OCC)C(=O)NC(CCC(=O)OCC)C(=O)NC(CCC(=O)OCC)C(=O)OCC (stereo not drawn)    > 100 µM

Qu. Quick check: TGI of "CSC(=NCCN=C(NS(=O)(=O)c1ccc(Cl)cc1)SC)NS(=O)(=O)c1ccc(Cl)cc1" ?
Ans. 87.8 µM

Qu. Quick check: TGI of "Fc1ccc(-c2ncn(C3CCNCC3)c2-c2ccnc(Oc3cccc(F)c3)n2)cc1" ?
Ans. > 25 µM

Qu. Quick check: TGI of "COc1ccc(/C=C\c2cc(OC)c(OC)c(OC)c2)c(NS(=O)(=O)c2ccc(C)cc2)c1O" ?
Ans. > 100 µM

Qu. Quick check: TGI of NC(CSC(c1ccccc1)(c1ccccc1)c1ccc2ccccc2c1)C(=O)O (stereo not drawn) ?
Ans. 14.4 µM

Qu. Quick check: TGI of C[C@@H]1C(O)CC[C@H](C)C12CC=CC2=O (stereo partly drawn) ?
Ans. > 100 µM

Qu. Quick check: TGI of "COc1cc2c(cc1C)n(O)c(C)c(C(=O)C/C(=N/NC(=O)C[N+](C)(C)C)C(=O)Nc1cccc(Cl)c1C)[n+]2=O" ?
Ans. > 100 µM

Qu. Quick check: TGI of "COc1cc([C@H]2Oc3c(c(O)cc4oc(-c5ccccc5)cc(=O)c34)O[C@@H]2CO)ccc1O" ?
Ans. > 100 µM

###

System: RPMI-8226 leukemia
Run description: NCI tumour cell line growth inhibition, 48 h; in the data active means GI50 below about 0.43 µM; inactive means the rest
Pick one and only one: class 1 (active), class 0 (inactive)

Here's what some known entries look like.
C#Cc1ccc(NC(=O)c2ccc(/C=C/C(=O)c3nccn3C)cc2)cc1    class 1
C=C(C)C1/C=C(/C(C)C)CC[C@]2(C)O[C@@H]2CC[C@H](C)CC1=O (stereo not given in full)    class 0
C[C@H]1[C@@H](OCC(CO[C@H]2O[C@@H]3O[C@@]4(C)CC[C@H]5[C@H](C)CC[C@@H]([C@H]2C)[C@@]35OO4)=NOCC(=O)O)OC2O[C@@]3(C)CC[C@H]4[C@H](C)CC[C@@H]1[C@@]24OO3 (stereo not given in full)    class 1
COc1cc(C2C(C#N)=C(N)OC3=C2C(=O)c2ccccc2C3=O)cc(OC)c1OC (stereo not given)    class 0

Qu. Could you check what this test reported for "CC(=O)N1CC(F)(F)c2c(Sc3ncc(N4CCC5(CC4)COC[C@H]5N)nc3N)cccc21" ?
Ans. class 0

Qu. Could you check what this test reported for "COc1ccc2c3c(c(OCCCN(C)C)nc2c1)-c1ccc(Cl)cc1C3=O" ?
Ans. class 0

Qu. Could you check what this test reported for "COc1ccc(/C=C2\N=C3SC=C(N)N3C2=O)cc1" ?
Ans. class 0

Qu. Could you check what this test reported for C[Se]C(=O)CC1=C2C=C(F)C=CC2/C(=C\c2ccc(S(C)=O)cc2)C1C (stereo not given) ?
Ans. class 0

Qu. Could you check what this test reported for "Cn1c(=O)c2[nH]c(COc3ccc(C(C)(C)C)cc3)nc2n(C)c1=O" ?
Ans. class 0

Qu. Could you check what this test reported for "CCCC[C@@H](COC(=O)N(Cc1cccs1)Cc1cccs1)NC(=O)N[C@@H](CC(=O)OC)c1ccc2c(c1)OCO2" ?
Ans. class 0
